# target: Gal(a1-3)Gal(b1-3)GlcNAc
# assay.comment: glycan array binding signal (z-score within array); higher = stronger binding
# condition.description: glycan notation: IUPAC condensed, linker removed
The entries come from a sample that favours the strongest signals as a whole.
recorded.endpoint: glycan array binding signal (z-score)
Keep it simple and answer with nothing but the number.

Request: What value of glycan array binding signal (z-score) has been recorded for this entry: FliC (Clostridium difficile) (protein) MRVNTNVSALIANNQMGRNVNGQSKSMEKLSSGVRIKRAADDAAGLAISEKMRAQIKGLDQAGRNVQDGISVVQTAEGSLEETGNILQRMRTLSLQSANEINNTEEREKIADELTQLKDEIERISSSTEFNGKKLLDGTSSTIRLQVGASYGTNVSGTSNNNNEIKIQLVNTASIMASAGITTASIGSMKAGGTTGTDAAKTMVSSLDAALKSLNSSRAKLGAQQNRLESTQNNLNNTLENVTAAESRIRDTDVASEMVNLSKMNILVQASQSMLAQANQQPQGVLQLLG
Response: 4.21
